So I've got a bunch of molecules here, and I need their inhibition at 10 µM values.
assay.system: Histamine H1 (Homo sapiens, UniProt P35367)
Construct: host or cells: CHO-K1
Sequence (P35367 whole entry): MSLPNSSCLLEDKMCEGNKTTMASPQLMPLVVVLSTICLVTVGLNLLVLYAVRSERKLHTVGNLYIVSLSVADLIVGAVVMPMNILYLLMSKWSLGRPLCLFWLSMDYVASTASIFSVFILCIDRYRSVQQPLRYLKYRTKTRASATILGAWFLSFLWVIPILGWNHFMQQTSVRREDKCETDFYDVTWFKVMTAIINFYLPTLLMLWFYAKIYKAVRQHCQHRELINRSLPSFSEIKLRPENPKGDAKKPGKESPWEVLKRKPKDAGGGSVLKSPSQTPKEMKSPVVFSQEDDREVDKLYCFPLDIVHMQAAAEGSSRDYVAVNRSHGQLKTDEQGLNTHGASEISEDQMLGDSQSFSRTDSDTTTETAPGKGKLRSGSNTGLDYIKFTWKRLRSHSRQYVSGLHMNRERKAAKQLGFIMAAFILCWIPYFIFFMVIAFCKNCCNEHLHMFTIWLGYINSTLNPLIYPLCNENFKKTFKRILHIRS
experiment.notes: Radioligand displacement binding assay, [3H]pyrilamine, H1
test.settings: 10 μM
API: value field is a number in %; no unit string.

Any idea what its inhibition at 10 µM is? The molecule is CC[C@H](O)C(C[C@H](C)NC)(c1ccccc1)c1ccccc1
33

Input CCC(=O)C(C[C@H](C)N(C)C)(c1ccccc1)c1ccccc1 [(S)-methadone, reference compound]
50

Input CCC1=N[C@H](C)CC1(c1ccccc1)c1ccccc1 [(R)-EMDP]
24

Input CC[C@@H](O)C(C[C@@H](C)N)(c1ccccc1)c1ccccc1
3

---

assay.system: Histamine H1 (Homo sapiens)
Construct: host or cells: CHO-K1
experiment.notes: Radioligand displacement binding assay, [3H]pyrilamine, H1
test.settings: 30 μM
So I've got a bunch of compounds here, and I need their inhibition at 30 µM values.
API: value field is a number in %; no unit string.

Any idea what its inhibition at 30 µM is? The compound is CC[C@H](O)C(C[C@H](C)N)(c1ccccc1)c1ccccc1 [(3S,6S)-DNML, (3S,6S)-6-amino-4,4-diphenylheptan-3-ol]
24

Input CC[C@@H](O)C(C[C@H](C)N)(c1ccccc1)c1ccccc1 [(3R,6S)-DNML, (3R,6S)-6-amino-4,4-diphenylheptan-3-ol]
19

Input CC[C@H](O)C(C[C@H](C)NC)(c1ccccc1)c1ccccc1 [(3S,6S)-NML]
65

Input CC[C@@H](O)C(C[C@H](C)NC)(c1ccccc1)c1ccccc1 [(3R,6S)-NML]
43

---

So I've got a bunch of compounds here, and I need their inhibition at 10 µM values.
assay.system: Serotonin 5-HT7 (Homo sapiens)
Construct: host or cells: CHO-K1
Sequence (P34969 whole entry): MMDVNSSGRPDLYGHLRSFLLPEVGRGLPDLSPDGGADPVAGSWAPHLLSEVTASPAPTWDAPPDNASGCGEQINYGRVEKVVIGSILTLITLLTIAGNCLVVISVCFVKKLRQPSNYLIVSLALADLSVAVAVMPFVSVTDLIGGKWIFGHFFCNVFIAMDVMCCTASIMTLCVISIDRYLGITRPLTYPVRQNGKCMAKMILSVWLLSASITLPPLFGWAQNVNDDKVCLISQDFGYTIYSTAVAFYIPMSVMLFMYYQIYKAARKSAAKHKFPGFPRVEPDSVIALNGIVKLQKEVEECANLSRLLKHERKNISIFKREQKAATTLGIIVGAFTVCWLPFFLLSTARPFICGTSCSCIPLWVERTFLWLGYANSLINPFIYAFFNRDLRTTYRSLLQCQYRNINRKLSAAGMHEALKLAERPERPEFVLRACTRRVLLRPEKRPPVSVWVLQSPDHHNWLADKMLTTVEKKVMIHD
experiment.notes: Radioligand displacement binding assay, [3H]LSD, 5-HT7
test.settings: 10 μM
API: value field is a number in %; no unit string.

Any idea what its inhibition at 10 µM is? The compound is CC[C@@H](O)C(C[C@H](C)NC)(c1ccccc1)c1ccccc1
28

Input CC[C@@H](O)C(C[C@H](C)N)(c1ccccc1)c1ccccc1
12

Input CC[C@H](O)C(C[C@@H](C)NC)(c1ccccc1)c1ccccc1
7

---

assay.system: GluN1-GluN2C NMDAR subtype (Homo sapiens, UniProt Q05586+Q14957)
Sequence (Q14957 20-1233, other chains not shown): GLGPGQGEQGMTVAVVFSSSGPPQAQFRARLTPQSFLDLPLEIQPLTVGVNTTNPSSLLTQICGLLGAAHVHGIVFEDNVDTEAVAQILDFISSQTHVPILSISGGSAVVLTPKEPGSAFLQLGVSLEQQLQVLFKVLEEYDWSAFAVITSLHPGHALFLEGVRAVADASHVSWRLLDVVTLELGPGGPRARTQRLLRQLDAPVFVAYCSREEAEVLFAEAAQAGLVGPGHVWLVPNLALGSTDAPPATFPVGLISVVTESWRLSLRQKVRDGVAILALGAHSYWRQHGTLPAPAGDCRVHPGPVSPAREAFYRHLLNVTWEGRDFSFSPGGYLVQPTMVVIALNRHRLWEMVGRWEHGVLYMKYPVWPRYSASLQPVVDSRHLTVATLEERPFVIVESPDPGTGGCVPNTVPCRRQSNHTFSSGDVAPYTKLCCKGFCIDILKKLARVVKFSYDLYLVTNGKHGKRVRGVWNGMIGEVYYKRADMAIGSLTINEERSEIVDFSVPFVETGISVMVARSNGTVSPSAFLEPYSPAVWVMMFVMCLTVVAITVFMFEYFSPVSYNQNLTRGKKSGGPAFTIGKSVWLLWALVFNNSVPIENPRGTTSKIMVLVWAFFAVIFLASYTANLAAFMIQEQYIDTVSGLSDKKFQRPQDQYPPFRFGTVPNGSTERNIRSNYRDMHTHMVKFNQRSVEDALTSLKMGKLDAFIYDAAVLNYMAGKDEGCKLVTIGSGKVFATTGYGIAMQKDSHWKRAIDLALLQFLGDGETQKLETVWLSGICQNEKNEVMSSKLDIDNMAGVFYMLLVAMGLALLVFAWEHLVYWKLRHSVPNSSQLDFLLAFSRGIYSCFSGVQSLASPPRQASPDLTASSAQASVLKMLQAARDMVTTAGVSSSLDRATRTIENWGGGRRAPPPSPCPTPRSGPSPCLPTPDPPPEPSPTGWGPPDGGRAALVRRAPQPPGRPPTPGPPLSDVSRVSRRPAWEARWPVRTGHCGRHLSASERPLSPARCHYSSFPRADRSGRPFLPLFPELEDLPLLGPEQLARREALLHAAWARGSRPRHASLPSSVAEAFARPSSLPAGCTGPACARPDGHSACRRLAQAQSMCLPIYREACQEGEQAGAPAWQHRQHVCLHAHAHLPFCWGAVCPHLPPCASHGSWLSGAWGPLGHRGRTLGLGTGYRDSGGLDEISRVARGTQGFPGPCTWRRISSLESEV
experiment.notes: FLIPR/Ca2+ assay, NMDAR GluN1-GluN2C subtype in CHO cells
Format: cell-based
test.settings: CHO cells, 10 μM L-glutamate and 10 μM glycine; n.d. = 50% of inhibition could not be reached at the highest concentration used
So I've got a bunch of molecules here, and I need their pIC50 (mean ± SEM) GluN1-GluN2C values.
Respond using a number only.

API: value(readout= pIC50 (mean ± SEM) GluN1-GluN2C, system= GluN1-GluN2C NMDAR subtype (Homo sapiens, UniProt Q05586+Q14957), query= CC[C@@H](O)C(C[C@@H](C)NC)(c1ccccc1)c1ccccc1 [(3R,6R)-NML] )
5.0

Input CC[C@@H](O)C(C[C@H](C)N)(c1ccccc1)c1ccccc1 [(3R,6S)-DNML, (3R,6S)-6-amino-4,4-diphenylheptan-3-ol]
5.1

Input C[C@]12N[C@H](Cc3ccccc31)c1ccccc12 [(+)-MK-801, reference compound]
6.2

Input CCC1=[N+](C)[C@H](C)CC1(c1ccccc1)c1ccccc1.[Cl-] [(R)-EDDP]
4.3

Input CC[C@H](O)C(C[C@@H](C)N(C)C)(c1ccccc1)c1ccccc1 [(3S,6R)-ML]
4.2

Input CC[C@H](O)C(C[C@@H](C)N)(c1ccccc1)c1ccccc1 [(3S,6R)-DNML, (3S,6R)-6-amino-4,4-diphenylheptan-3-ol]
4.6

Input CNC1(c2ccccc2Cl)CCCCC1=O (racemic) [(±)-ketamine, reference compound]
5.4

Input CC[C@@H](O)C(C[C@@H](C)N)(c1ccccc1)c1ccccc1 [(3R,6R)-DNML, (3R,6R)-6-amino-4,4-diphenylheptan-3-ol]
4.7

Input CC[C@H](O)C(C[C@H](C)NC)(c1ccccc1)c1ccccc1 [(3S,6S)-NML]
4.7

Input COc1ccc2c(c1)[C@]13CCCC[C@@H]1[C@H](C2)N(C)CC3 [dextromethorphan, reference compound]
5.2

Input CC[C@H](O)C(C[C@H](C)N(C)C)(c1ccccc1)c1ccccc1 [(3S,6S)-ML]
4.1

Input CC[C@@H](O)C(C[C@@H](C)N(C)C)(c1ccccc1)c1ccccc1 [(3R,6R)-ML]
4.1

Input CC[C@H](O)C(C[C@@H](C)NC)(c1ccccc1)c1ccccc1 [(3S,6R)-NML]
5.0

Input CC[C@@H](O)C(C[C@H](C)NC)(c1ccccc1)c1ccccc1 [(3R,6S)-NML]
4.6

Input CC[C@H](O)C(C[C@H](C)N)(c1ccccc1)c1ccccc1 [(3S,6S)-DNML, (3S,6S)-6-amino-4,4-diphenylheptan-3-ol]
4.7

---

Test system: Glutamate, NMDA, Phencyclidine binding site
experiment.notes: Radioligand displacement binding assay, [3H]TCP, NMDA
Design: species or system Wistar rat
test.settings: 1 μM
experimental.endpoint: % inhibition of binding, NMDA (%)
API: value field is a number in %; no unit string.

Any idea what its % inhibition of binding, NMDA is? The molecule is CC[C@@H](O)C(C[C@@H](C)N)(c1ccccc1)c1ccccc1 [(3R,6R)-DNML, (3R,6R)-6-amino-4,4-diphenylheptan-3-ol]
12

Input CC[C@H](O)C(C[C@H](C)NC)(c1ccccc1)c1ccccc1 [(3S,6S)-NML]
9

Input CC[C@H](O)C(C[C@@H](C)N)(c1ccccc1)c1ccccc1 [(3S,6R)-DNML, (3S,6R)-6-amino-4,4-diphenylheptan-3-ol]
8

Input CC[C@@H](O)C(C[C@H](C)N)(c1ccccc1)c1ccccc1 [(3R,6S)-DNML, (3R,6S)-6-amino-4,4-diphenylheptan-3-ol]
12

Input CC[C@H](O)C(C[C@H](C)N)(c1ccccc1)c1ccccc1 [(3S,6S)-DNML, (3S,6S)-6-amino-4,4-diphenylheptan-3-ol]
9

Input CC[C@@H](O)C(C[C@H](C)NC)(c1ccccc1)c1ccccc1 [(3R,6S)-NML]
8

Input CCC1=N[C@H](C)CC1(c1ccccc1)c1ccccc1 [(R)-EMDP]
12

Input CC[C@H](O)C(C[C@@H](C)NC)(c1ccccc1)c1ccccc1 [(3S,6R)-NML]
-5

Input CC[C@@H](O)C(C[C@@H](C)NC)(c1ccccc1)c1ccccc1 [(3R,6R)-NML]
17

---

assay.system: Muscarinic M5 (Homo sapiens)
Construct: host or cells: CHO-K1
Sequence (P08912 whole entry): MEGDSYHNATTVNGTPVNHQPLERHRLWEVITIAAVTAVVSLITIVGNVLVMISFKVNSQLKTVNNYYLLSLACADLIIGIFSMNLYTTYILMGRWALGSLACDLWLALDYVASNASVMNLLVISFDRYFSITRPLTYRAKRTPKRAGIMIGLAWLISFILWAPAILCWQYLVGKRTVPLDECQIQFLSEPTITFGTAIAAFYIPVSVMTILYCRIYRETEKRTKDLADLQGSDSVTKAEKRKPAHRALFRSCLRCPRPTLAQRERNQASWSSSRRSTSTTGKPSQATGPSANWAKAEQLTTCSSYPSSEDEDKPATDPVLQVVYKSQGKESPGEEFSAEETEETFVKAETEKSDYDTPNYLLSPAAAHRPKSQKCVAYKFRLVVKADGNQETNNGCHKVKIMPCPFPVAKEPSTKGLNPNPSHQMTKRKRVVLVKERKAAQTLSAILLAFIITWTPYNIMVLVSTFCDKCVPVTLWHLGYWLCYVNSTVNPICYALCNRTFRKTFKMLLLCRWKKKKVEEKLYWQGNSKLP
experiment.notes: Radioligand displacement binding assay, [3H]N-methylscopolamine, M5
test.settings: 10 μM
So I've got a bunch of compounds here, and I need their inhibition at 10 µM values.
API: value field is a number in %; no unit string.

API: value(readout= inhibition at 10 µM, system= Muscarinic M5 (Homo sapiens), query= CC[C@@H](O)C(C[C@H](C)N)(c1ccccc1)c1ccccc1 )
13

Input CC[C@H](O)C(C[C@@H](C)NC)(c1ccccc1)c1ccccc1
74

Input CCC1=N[C@H](C)CC1(c1ccccc1)c1ccccc1 [(R)-EMDP]
3

Input CC[C@H](O)C(C[C@H](C)N)(c1ccccc1)c1ccccc1
9

Input CC[C@H](O)C(C[C@H](C)NC)(c1ccccc1)c1ccccc1
15

Input CC[C@@H](O)C(C[C@@H](C)NC)(c1ccccc1)c1ccccc1
43

Input CCC(=O)C(C[C@H](C)N(C)C)(c1ccccc1)c1ccccc1 [(S)-methadone, reference compound]
73

Input CC[C@@H](O)C(C[C@@H](C)N)(c1ccccc1)c1ccccc1
33

Input CC[C@H](O)C(C[C@@H](C)N)(c1ccccc1)c1ccccc1
39

Input CC[C@@H](O)C(C[C@H](C)NC)(c1ccccc1)c1ccccc1
46

---

Tested on: Glutamate, NMDA, Phencyclidine binding site
experiment.notes: Radioligand displacement binding assay, [3H]TCP, NMDA
Design: species or system Wistar rat
test.settings: 10 μM
So I've got a bunch of compounds here, and I need their % inhibition of binding, NMDA values.
API: value field is a number in %; no unit string.

Any idea what its % inhibition of binding, NMDA is? The compound is CC[C@H](O)C(C[C@@H](C)NC)(c1ccccc1)c1ccccc1
51

Input CC[C@@H](O)C(C[C@@H](C)NC)(c1ccccc1)c1ccccc1
57

Input CC[C@H](O)C(C[C@H](C)N)(c1ccccc1)c1ccccc1
36

Input CC[C@@H](O)C(C[C@H](C)NC)(c1ccccc1)c1ccccc1
48

Input CC[C@H](O)C(C[C@@H](C)N)(c1ccccc1)c1ccccc1
38

Input CCC1=N[C@H](C)CC1(c1ccccc1)c1ccccc1 [(R)-EMDP]
4

Input CC[C@@H](O)C(C[C@@H](C)N)(c1ccccc1)c1ccccc1
54
